Hey, just so you know, these numbers are from patent US10683311B2.

Here the recorded chromatographic logP is given for each entry.
# assay: log P by HPLC on reversed-phase column (C18), EEC Directive 79/831 Annex V.A8
# Type: physicochemical
# particulars: reversed-phase HPLC column (C18), Method A: 40° C., 0.1% aqueous formic acid and acetonitrile
The answer should be a number; do not append a unit.

# annotated cases, reported chromatographic logP shown
>>> endpoint_value("Cc1nc2c(F)c(F)ccc2cc1Oc1cccc(F)c1Br")
4.29
>>> endpoint_value("Cc1nc2c(F)c(F)ccc2cc1Oc1cccc(Cl)c1Br")
4.72
>>> endpoint_value("C[SiH](c1ccccc1)c1c(Oc2cccc(F)c2)c(Cl)nc2ccccc12 (stereo not drawn)")
5.9
>>> endpoint_value("Cc1nc2c(F)c(F)ccc2cc1Oc1cc(F)ccc1Br")
4.34
>>> endpoint_value("Cc1nc2c(F)c(F)ccc2cc1Oc1ccccc1Br")
4.25

Moving on to another molecule below.
**Q:** Output measured chromatographic logP for this item: Fc1cccc(Oc2cc3ccccc3nc2C(F)F)c1Br
**A:** 3.99

====

# assay: log P by HPLC on reversed-phase column (C18), EEC Directive 79/831 Annex V.A8
# Format: physicochemical
# particulars: reversed-phase HPLC column (C18), Method B: 40° C., 0.001 molar ammonium acetate solution in water and acetonitrile
observed property: chromatographic logP
The answer should be a number; do not append a unit.

>>> endpoint_value("Brc1c(COC2CCCCO2)cccc1Nc1cnc2ccccc2c1 (centres unmarked) [II.04A]")
4.13

**Q:** Output measured chromatographic logP for this item: C[Si]1(C)OCc2cccc(Nc3cnc4ccccc4c3)c21
**A:** 3.15

====

# assay: log P by HPLC on reversed-phase column (C18), EEC Directive 79/831 Annex V.A8
# Assay type: physicochemical
# particulars: reversed-phase HPLC column (C18), logP Method A
observed property: chromatographic logP
The answer should be a number; do not append a unit.

>>> endpoint_value("O=S(=O)(c1cccc(F)c1)c1cnc2ccccc2c1 [VII.05A]")
2.68
>>> endpoint_value("OCc1cccc(Oc2cnc3ccccc3c2)c1I [II.02A]")
2.59
>>> endpoint_value("[O-][n+]1cc(Oc2cccc(F)c2)cc2ccccc21 [VIIa.06, 3-(3-fluorophenoxy)quinoline 1-oxide]")
2.14
>>> endpoint_value("Fc1cccc(Oc2cc3ccccc3nc2Cl)c1 [VIIa.01, 2-chloro-3-(3-fluorophenoxy)quinoline]")
3.99

**Q:** Output measured chromatographic logP for this item: O=C(c1cccc(F)c1)c1cnc2ccccc2c1 [VII.02A]
**A:** 2.73

====

# assay: log P by HPLC on reversed-phase column (C18), EEC Directive 79/831 Annex V.A8
# Format: physicochemical
# particulars: reversed-phase HPLC column (C18), Method A: 40° C., 0.1% aqueous formic acid and acetonitrile
# Method: In table 1, the log P values were determined in accordance with EEC Directive 79/831 Annex V.A8 by HPLC (High Performance Liquid Chromatography) on a reversed-phase column (C18), using the methods described below: Method A: temperature: 40° C.; mobile phases: 0.1% aqueous formic acid and acetonitrile; linear gradient from 10% acetonitrile to 95% acetonitrile; […]
observed property: chromatographic logP

**Q:** Output measured chromatographic logP for this item: C[SiH](c1ccccc1)c1c(F)cccc1Oc1cc2ccccc2nc1Cl (centres unmarked)
**A:** 5.78

**Q:** Output measured chromatographic logP for this item: Fc1cccc(Oc2cnc3ccccc3c2)c1I
**A:** 3.71

**Q:** Output measured chromatographic logP for this item: Cc1nc2ccccc2cc1Oc1cccc(F)c1Br
**A:** 3.58

**Q:** Output measured chromatographic logP for this item: Cc1nc2ccccc2cc1Oc1ccccc1Br
**A:** 3.96

**Q:** Output measured chromatographic logP for this item: Fc1ccc(Oc2cnc3c(Cl)cccc3c2)c(Br)c1
**A:** 4.18
